experiment: Ratio of drug uptake in brain to plasma of Wistar Han rat; assay type: ADME; settings: brain and plasma, read-out: BPR
observation.type: Kp
Just the number, please.

CC(C)(C)c1cc(NC(=O)[C@@H]2CCC(=O)N2c2ccc(Cl)cc2)on1	0.41

From here, focus on the item given below.
For reference, reported Kp for CC(C)(C)c1cc(NC(=O)[C@@H]2CCC(=O)N2c2ccc(C(F)(F)F)cc2)on1 stands at 0.9

---

experiment: Oral bioavailability in Wistar Han rat at 10 umol/kg; type: ADME, organism-based; conditions: in vivo
observation.type: bioavailability (%)
Numbers only here, please. The scale is %.

CC(C)(C)c1cc(NC(=O)[C@@H]2C[C@@H](O)CN2CC2CCOCC2)on1 (relative stereo)	18

For reference, reported bioavailability for CC(C)(C)c1cc(NC(=O)[C@@H]2CCC(=O)N2c2ccc(C(F)(F)F)cc2)on1 stands at 88

---

test: Oral bioavailability in Wistar Han rat at 10 mg/kg; format: ADME, organism-based; conditions: in vivo
observation.type: bioavailability (%)
Numbers only here, please. The scale is %.

For reference, reported bioavailability for CC(C)(C)c1cc(NC(=O)[C@@H]2CCC(=O)N2c2ccc(Cl)cc2)on1 stands at 44

---

experiment: Mean residence time in Wistar Han rat at 1 mg/kg, iv; type: ADME, organism-based; set-up: dose 1 mg/kg, route intravenous; details: in vivo
In this section, each of the molecules is paired with its reported MRT.
Numbers only here, please. The scale is h.

CC(C)(C)c1cc(NC(=O)[C@@H]2CCC(=O)N2c2ccc(Cl)cc2)on1	1.3

From here, focus on the item given below.
For reference, reported MRT for CC(C)(C)c1cc(NC(=O)[C@@H]2CCCN2c2ccc(Cl)cc2)no1 stands at 1

---

test: Permeability from basolateral to apical side of human Caco2 cells; type: ADME, cell-based; details: Caco-2, read-out: permeability
observation.type: Papp B→A (×10⁻⁶ cm/s)
Numbers only here, please. The scale is ×10⁻⁶ cm/s.

For reference, reported Papp B→A for CC(C)(C)c1cc(NC(=O)[C@@H]2CCC(=O)N2c2ccc(Cl)cc2)on1 stands at 23

For reference, reported Papp B→A for CC(C)(C)c1cc(NC(=O)[C@@H]2CCCN2c2ccc(Cl)cc2)no1 stands at 18

For reference, reported Papp B→A for CC(C)(C)c1cc(NC(=O)[C@@H]2CCC(=O)N2c2ccc(C(F)(F)F)cc2)on1 stands at 7.5

---

experiment: Mean residence time in Wistar Han rat at […], iv; assay type: ADME, organism-based; details: in vivo
In this section, each of the compounds is paired with its reported MRT.
Numbers only here, please. The scale is h.

CC(C)(C)c1cc(NC(=O)[C@@H]2CCC(=O)N2c2ccc(C(F)(F)F)cc2)on1	6

For reference, reported MRT for CC(C)(C)c1cc(NC(=O)[C@@H]2C[C@@H](O)CN2CC2CCOCC2)on1 (relative stereo) stands at 0.34

---

test: Oral bioavailability in Wistar Han rat at 5 mg/kg; format: ADME, organism-based; conditions: in vivo
observation.type: bioavailability
# include the unit after the value

For reference, reported bioavailability for CC(C)(C)c1cc(NC(=O)[C@@H]2CCCN2c2ccc(Cl)cc2)no1 stands at 5%
